These data points were gathered from ChEMBL document CHEMBL3124816.

- SYSTEM NAME: Phosphatidylinositol 4,5-bisphosphate 3-kinase catalytic subunit delta isoform (Homo sapiens)
- Sequence (O00329 whole entry, canonical isoform): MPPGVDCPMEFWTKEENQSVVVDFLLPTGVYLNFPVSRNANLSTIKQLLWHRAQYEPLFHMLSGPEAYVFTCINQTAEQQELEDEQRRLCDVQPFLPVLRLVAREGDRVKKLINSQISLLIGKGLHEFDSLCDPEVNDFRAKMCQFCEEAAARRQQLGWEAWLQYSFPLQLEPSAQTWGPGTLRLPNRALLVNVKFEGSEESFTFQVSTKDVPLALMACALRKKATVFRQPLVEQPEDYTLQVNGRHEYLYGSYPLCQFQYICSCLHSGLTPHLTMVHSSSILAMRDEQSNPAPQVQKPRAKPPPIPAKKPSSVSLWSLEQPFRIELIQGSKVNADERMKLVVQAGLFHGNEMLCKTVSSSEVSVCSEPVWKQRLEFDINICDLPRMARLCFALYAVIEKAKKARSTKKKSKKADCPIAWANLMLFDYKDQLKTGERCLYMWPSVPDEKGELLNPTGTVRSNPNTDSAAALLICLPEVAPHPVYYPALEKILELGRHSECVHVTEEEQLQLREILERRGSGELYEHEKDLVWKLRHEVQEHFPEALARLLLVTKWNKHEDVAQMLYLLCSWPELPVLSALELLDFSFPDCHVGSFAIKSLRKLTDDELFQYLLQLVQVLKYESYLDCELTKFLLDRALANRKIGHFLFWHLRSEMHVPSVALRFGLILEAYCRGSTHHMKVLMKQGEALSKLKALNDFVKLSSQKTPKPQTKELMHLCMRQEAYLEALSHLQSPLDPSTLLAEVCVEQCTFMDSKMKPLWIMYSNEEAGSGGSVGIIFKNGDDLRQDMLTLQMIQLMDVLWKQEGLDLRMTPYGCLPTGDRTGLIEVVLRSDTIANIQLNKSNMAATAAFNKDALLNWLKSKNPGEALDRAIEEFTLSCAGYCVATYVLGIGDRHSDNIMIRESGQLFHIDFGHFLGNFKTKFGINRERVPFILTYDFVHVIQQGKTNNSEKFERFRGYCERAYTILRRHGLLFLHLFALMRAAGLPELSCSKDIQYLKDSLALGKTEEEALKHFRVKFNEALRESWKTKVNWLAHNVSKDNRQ
- ASSAY SUMMARY: Inhibition of human PI3Kdelta after 15 mins
Listed here are compounds together with their documented IC50.
Give the value in nM but do not write nM after it.

NC(=O)c1sc(N2CCOCC2)nc1CC(=O)N1CCc2c(F)cccc21    485
CC1Cc2c(Br)cccc2N1C(=O)Cc1nc(N2CCOCC2)sc1C(N)=O (single isomer, unassigned; enantiomer 2)    430
CC1CN(C(=O)Cc2nc(N3CCOCC3)sc2C(N)=O)c2ccccc21 (racemic)    567
CC1Cc2c(Br)cccc2N1C(=O)Cc1nc(N2CCOCC2)sc1C(=O)O (single isomer, unassigned; enantiomer 1)    63
O=C(O)c1sc(N2CCOCC2)nc1CC(=O)N1CCc2c(Cl)cccc21    245

[Q] Fill in: IC50 of CC1Cc2ccccc2N1C(=O)Cc1nc(N2CCOCC2)sc1C(N)=O (racemic) is ___
[A] 435

[Q] Please look up its IC50: O=C(O)c1sc(N2CCOCC2)nc1CC(=O)N1CCc2cc(Br)ccc21
[A] 1000

[Q] Any idea what IC50 was measured for O=C(O)c1sc(N2CCOCC2)nc1CC(=O)N1CCc2c(Br)cccc21 ?
[A] 133

[Q] Quick one: IC50 for NC(=O)c1sc(N2CCOCC2)nc1CC(=O)N1CCc2cc(Cl)ccc21 ?
[A] 1860

[Q] So what does the record say about IC50 for O=C(O)c1sc(N2CCOCC2)nc1CC(=O)N1CCc2cc(F)ccc21 ?
[A] 64

[Q] Endpoint output: IC50 of CC1Cc2cc(F)ccc2N1C(=O)Cc1nc(N2CCOCC2)sc1C(N)=O (centres undefined) . Value?
[A] 127

[Q] # lookup: IC50 of NC(=O)c1sc(N2CCOCC2)nc1CC(=O)N1CCc2ccccc21
[A] 230

[Q] Which IC50 value is on record for CC1Cc2cc(F)ccc2N1C(=O)Cc1nc(N2CCOCC2)sc1C(=O)O (centres undefined) ?
[A] 219

[Q] // IC50 lookup, key: NC(=O)c1sc(N2CCOCC2)nc1CC(=O)N1CCc2cc(F)ccc21
[A] 134

[Q] Param item = NC(=O)c1sc(N2CCOCC2)nc1CC(=O)N1CCc2c(Br)cccc21 ; retrieve measured IC50.
[A] 178

[Q] Query: IC50; subject: CC1Cc2c(Cl)cccc2N1C(=O)Cc1nc(N2CCOCC2)sc1C(N)=O (centres undefined)
[A] 58

[Q] Could you tell me which IC50 is on file for NC(=O)c1sc(N2CCOCC2)nc1CC(=O)Nc1ccc(F)c(Cl)c1 ?
[A] 227

[Q] Query (compound): CC1Cc2c(Br)cccc2N1C(=O)Cc1nc(N2CCOCC2)sc1C(=O)O (single isomer, unassigned; enantiomer 2) ; field requested: IC50
[A] 861

[Q] Looking for the measured IC50 of NC(=O)c1sc(N2CCOCC2)nc1CC(=O)N1CCc2cc(Br)ccc21 , can you help?
[A] 483
